ASSAY_NOTES: Pharmacokinetic study of 14 compounds in rat plasma after oral administration of XYP (UPLC-MS/MS)
Format: in vivo, Sprague–Dawley rats
CONDITION: female, Sprague-Dawley, rat, plasma, po, 4 g/kg, oral XYP 4 g/kg, mean ± SD, n = 6, read-out: tmax
Experimental: The validated UPLC-MS/MS method was successfully applied to the pharmacokinetic study of 14 compounds in rat plasma after the oral administration of XYP at a dose of 4 g/kg (8-fold the clinical dosage). Quantitative analysis was conducted on a Waters® Micromass® Quattro Premier™ XE triple-quadrupole tandem mass spectrometer (Waters Corp., Milford, MA, USA). […]
// returns N unless Tmax is strictly below 20 min, in which case Y

Consider the worked cases shown below.
O=C(/C=C/c1ccc(O)cc1)c1ccc(O)cc1O
N
O=c1c(O)c(-c2ccc(O)c(O)c2)oc2cc(O)cc(O)c12
Y
C=C1CCC[C@]2(C)C[C@]3(O)OC(=O)C(C)=C3C[C@@H]12 [Atractylenolide III, atractylenolide III]
N
C[C@@H]1O[C@@H](O[C@H]2[C@H](O)[C@@H](O)[C@H](O[C@H]3CC[C@]4(C)[C@H]5C=C[C@]67OC[C@@]8(CCC(C)(C)C[C@H]86)[C@@H](O)C[C@@]7(C)[C@]5(C)CC[C@H]4C3(C)C)O[C@@H]2CO[C@@H]2O[C@H](CO)[C@@H](O)[C@H](O)[C@H]2O)[C@H](O)[C@H](O)[C@H]1O
N
O=C1C[C@@H](c2ccc(O[C@@H]3O[C@H](CO)[C@@H](O)[C@H](O)[C@H]3O)cc2)Oc2cc(O)ccc21
N

Problem: Dear reviewer, please state whether COc1cc(/C=C/C(=O)O)ccc1O has Tmax strictly beneath 20 min.
Solution: Y

Problem: Dear reviewer, please state whether O=C1C[C@@H](c2ccc(O)cc2)Oc2cc(O)ccc21 has Tmax strictly beneath 20 min.
Solution: Y

Problem: Dear reviewer, please state whether CC12CC(O)C3CC1(OC1OC(CO)C(O)C(O)C1O)C3(COC(=O)c1ccccc1)C(=O)O2 (centres unmarked) has Tmax strictly beneath 20 min.
Solution: N

Problem: Dear reviewer, please state whether C[C@@]12C[C@@]3(O)O[C@@H](O1)[C@]1(COC(=O)c4ccccc4)[C@H]3C[C@@]12O[C@@H]1O[C@H](CO)[C@@H](O)[C@H](O)[C@H]1O has Tmax strictly beneath 20 min.
Solution: N

Problem: Dear reviewer, please state whether C[C@H]1O[C@@H](O[C@H]2CC[C@@]3(C)[C@@H](CC[C@]4(C)[C@@H]3C=C[C@]35OC[C@@]6(CCC(C)(C)C[C@H]63)[C@@H](O)C[C@]54C)[C@]2(C)CO)[C@H](O)[C@@H](O[C@@H]2O[C@H](CO)[C@@H](O)[C@H](O)[C@H]2O)[C@H]1O has Tmax strictly beneath 20 min.
Solution: N

Problem: Dear reviewer, please state whether C=C1CCC[C@]2(C)C[C@@H]3OC(=O)C(C)=C3C[C@@H]12 [Atractylenolide II, atractylenolide II] has Tmax strictly beneath 20 min.
Solution: N

Problem: Dear reviewer, please state whether CCC/C=C1\OC(=O)C2=C1CC[C@H](O)[C@H]2O [Senkyunolide I, senkyunolide I] has Tmax strictly beneath 20 min.
Solution: N

Problem: Dear reviewer, please state whether CCC/C=C1\OC(=O)C2=C1CCC=C2 [Ligustilide, ligustilide] has Tmax strictly beneath 20 min.
Solution: Y
